TESTED_SYSTEM: 17β-HSD10 (Homo sapiens, UniProt Q99714)
Construct: Histev (histidine tag with TEV site) (N, cleaved yes)
Sequence (Q99714 1-261): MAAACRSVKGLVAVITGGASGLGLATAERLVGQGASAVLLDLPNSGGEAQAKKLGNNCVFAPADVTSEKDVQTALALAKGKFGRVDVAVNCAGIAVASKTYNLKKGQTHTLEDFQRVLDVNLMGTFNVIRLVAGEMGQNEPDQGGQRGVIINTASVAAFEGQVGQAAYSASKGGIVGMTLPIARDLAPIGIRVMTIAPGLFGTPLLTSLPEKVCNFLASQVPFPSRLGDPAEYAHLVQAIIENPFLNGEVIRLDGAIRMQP
TEST_PROTOCOL: 17β-HSD10 (ABAD) enzyme inhibition assay, NADH oxidation read at 340 nm (primary screen and dose response)
EXPERIMENTAL_SETUP: recombinant 17βHSD10 enzyme assay
MEASUREMENT_NAME: EC50 (nM)

Known results for molecules:
1. CC(C)CN(C(=O)c1ccccc1F)c1cccc(N(C)Cc2cnc[nH]2)c1; 200
2. CC(C)CN(C(=O)C1CCCCC1)c1cccc(N(C)Cc2cnc[nH]2)c1; 955

a = O=C(c1sccc1Cl)N1CCC[C@H]1c1ccccc1-c1cc(O)cc(F)c1 (racemic) [ESC1002776]
b = CC(C)CN(C(=O)c1ccccc1F)c1cccc(N(C)Cc2c[nH]cn2)n1
Could you point out whether the larger EC50 belongs to a or to b ? Mark your answer with the label of the selected entry. b

====

TESTED_SYSTEM: 17β-HSD10 (Homo sapiens)
Construct: Histev (histidine tag with TEV site) (N, cleaved yes); made in house; host or cells: E. coli BL21-CodonPlus
TEST_PROTOCOL: 17β-HSD10 (ABAD) enzyme inhibition assay, NADH oxidation read at 340 nm (primary screen and dose response)
Format: biochemical
EXPERIMENTAL_SETUP: recombinant 17βHSD10 enzyme assay, curve fit
MEASUREMENT_NAME: Hill Slope

Illustrative cases are given below, each with its answer.
1. CC(C)CN(C(=O)c1ccccc1F)c1cccc(N(C)Cc2nc[nH]n2)c1 [ESC1002770]; 1.2
2. COc1cccc(-c2ccccc2[C@H]2CCCN2C(=O)c2scnc2C)c1 [ESC1002430]; 1.2

1 = Cc1ccsc1C(=O)N1CCC[C@H]1c1ccccc1-c1ccccc1Cl (single isomer, unassigned) [ESC1002767]
2 = COc1cccc(-c2ccccc2[C@@H]2CCCN2C(=O)c2sccc2C)c1 (single isomer, unassigned) [ESC1002421]
Determine, for 1 and 2 , which has the greater value of Hill Slope. Label of pick, please. 2

====

TESTED_SYSTEM: 17β-HSD10 (Homo sapiens)
Construct: Histev (histidine tag with TEV site) (N, cleaved yes); made in house; host or cells: E. coli BL21-CodonPlus
Sequence (Q99714 1-261): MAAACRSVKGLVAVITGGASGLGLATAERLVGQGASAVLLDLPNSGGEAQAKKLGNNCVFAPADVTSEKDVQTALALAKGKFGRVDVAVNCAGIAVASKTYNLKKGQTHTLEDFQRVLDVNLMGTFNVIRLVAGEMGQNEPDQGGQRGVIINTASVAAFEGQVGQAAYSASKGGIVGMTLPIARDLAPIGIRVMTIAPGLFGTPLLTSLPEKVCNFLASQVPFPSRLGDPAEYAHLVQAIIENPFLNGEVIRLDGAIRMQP
TEST_PROTOCOL: 17β-HSD10 (ABAD) enzyme inhibition assay, NADH oxidation read at 340 nm (primary screen and dose response)
Format: biochemical
EXPERIMENTAL_SETUP: recombinant 17βHSD10 enzyme assay, curve fit
MEASUREMENT_NAME: Hill Slope

1) Cc1ccc(C(=O)N(CC(C)C)c2cccc(N(C)Cc3cnc[nH]3)c2)cc1; 0.9
2) CN(Cc1c[nH]cn1)c1cccc(N(CC2CCC2)C(=O)c2ccccc2F)c1; 1.1
3) Cc1ccsc1C(=O)N1CCC[C@H]1c1ccccc1-c1ccc(N2CCOCC2)cc1; 1.1
4) COc1cccc(C(=O)N(CC(C)C)c2cccc(N(C)Cc3cnc[nH]3)c2)c1; 0.8

====

TESTED_SYSTEM: 17β-HSD10 (Homo sapiens, UniProt Q99714)
Construct: Histev (histidine tag with TEV site) (N, cleaved yes); made in house; host or cells: E. coli BL21-CodonPlus
TEST_PROTOCOL: 17β-HSD10 (ABAD) enzyme inhibition assay, NADH oxidation read at 340 nm (primary screen and dose response)
Format: biochemical
EXPERIMENTAL_SETUP: 17β-HSD10 inhibition; read-out: IC50
MEASUREMENT_NAME: pIC50
Formally, pIC50 is defined as -log10 of the concentration c, with c in mol/L.

// returns reported pIC50 for input COc1cccc(-c2ccccc2[C@@H]2CCCN2C(=O)c2sccc2C)c1 [ESC1002338] 6.72

====

TESTED_SYSTEM: 17β-HSD10 (Homo sapiens, UniProt Q99714)
Construct: Histev (histidine tag with TEV site) (N, cleaved yes); made in house; host or cells: E. coli BL21-CodonPlus
TEST_PROTOCOL: 17β-HSD10 (ABAD) enzyme inhibition assay, NADH oxidation read at 340 nm (primary screen and dose response)
Type: biochemical
EXPERIMENTAL_SETUP: recombinant 17βHSD10 enzyme assay, curve fit
MEASUREMENT_NAME: Max. Fit

1. C#CCN(C)c1cccc(N(CC(C)C)C(=O)c2ccccc2F)c1; 101
2. CCCn1c(C(N)=O)cc2cc(-c3cn[nH]c3)ccc21; 93
3. Cc1ccsc1C(=O)N1CCC[C@@H]1c1ccccc1-c1cnn(C)c1; 96
4. O=C(c1sccc1Cl)N1CCC[C@H]1c1ccccc1-c1ccc(O)cc1 (racemic); 97
5. CC(C)CN(C(=O)c1ccccc1F)c1cccc(N(C)Cc2nc[nH]n2)c1; 91
6. O=C(c1sccc1Cl)N1CCC[C@H]1c1ccccc1-c1cccc(O)c1F (single isomer, unassigned); 97
7. CC(C)CN(C(=O)c1ccccc1Cl)c1cccc(N(C)Cc2c[nH]cn2)c1; 94
8. CC(C)CN(C(=O)Cc1ccccc1)c1cccc(N(C)Cc2cnc[nH]2)c1; 100
9. Cc1ccsc1C(=O)N1CCC[C@H]1c1ccccc1-c1ccc(C(=O)N(C)C)cc1; 99
10. Cc1ccsc1C(=O)N1CCC[C@@H]1c1ccccc1-c1c[nH]nc1C; 91
11. CC(C)CN(C(=O)c1ccccc1F)c1cccc(NCc2c[nH]cn2)c1; 100
12. COc1cccc(C(=O)N(CC(C)C)c2cccc(N(C)Cc3cnc[nH]3)c2)c1; 105
13. Cc1ccsc1C(=O)N1CCC[C@H]1c1ccccc1-c1cccc(C)c1C; 97
14. COc1cc(-c2ccccc2[C@@H]2CCCN2C(=O)c2sccc2Cl)ccc1C (racemic); 92
15. Cc1ccsc1C(=O)N1CCC[C@H]1c1ccccc1-c1ccccc1Cl (single isomer, unassigned) [ESC1002767]; 96
16. Cc1ccc(C(=O)N(CC(C)C)c2cccc(N(C)Cc3c[nH]cn3)c2)c(F)c1; 101
17. CC(C)CN(C(=O)c1ccccc1F)c1cccc(N(C)Cc2ccn[nH]2)c1 [ESC1002206]; 107
18. Cc1ccsc1C(=O)N1CCC[C@H]1c1ccccc1-c1ccc(C#N)cc1; 100
19. O=C(c1sccc1Cl)N1CCCC1c1ccccc1-c1cccc(O)c1 (racemic); 98
20. Cc1ccsc1C(=O)N1CCC[C@H]1c1ccccc1-c1ccc(C(F)(F)F)cc1; 97
21. Cc1ccsc1C(=O)N1CCC[C@H]1c1ccccc1-c1ccc(OC(F)(F)F)cc1; 97
22. CC(C)CN(C(=O)C(C)C)c1cccc(N(C)Cc2cnc[nH]2)c1; 100
23. Cc1ccsc1C(=O)N1CCC[C@H]1c1ccccc1-c1cnn(C2CCOCC2)c1; 102
24. Cc1ccc(C(=O)N(c2cccc(N(C)Cc3cnc[nH]3)c2)C(C)C)cc1; 102
25. Cc1ccsc1C(=O)N1CCC[C@H]1c1ccccc1-c1cccc(Cl)c1 (single isomer, unassigned) [ESC1002769]; 93
26. CC(C)CN(C(=O)c1ccc(C(F)(F)F)cc1F)c1cccc(N(C)Cc2c[nH]cn2)c1; 97
27. CC(C)CN(C(=O)c1ccccc1F)c1cccc(N(C)Cc2cn(C)cn2)c1; 96
28. CCCC(=O)N(CC(C)C)c1cccc(N(C)Cc2cnc[nH]2)c1; 93
29. Cc1ccsc1C(=O)N1CCC[C@@H]1c1ccccc1-c1cnn(CCO)c1; 110
30. COc1cc(OC)cc(-c2ccccc2[C@@H]2CCCN2C(=O)c2sccc2Cl)c1 (racemic); 92
31. O=C(c1sccc1Cl)N1CCC[C@H]1c1ccccc1-c1ccc(F)c(O)c1 (single isomer, unassigned) [ESC1002838]; 97
32. O=C(c1[nH]ncc1Cl)N1CCC[C@H]1c1ccccc1-c1cccc(O)c1 (single isomer, unassigned); 96
33. Cc1ccsc1C(=O)N(CC(C)C)c1cccc(N(C)Cc2c[nH]cn2)c1; 96
34. COc1ccc(-c2ccc(-c3cn[nH]c3)s2)c(OC)c1OC; 101

Provenance of the data: patent US20260132123A1
